src = ChEMBL document CHEMBL3217723

Test summary: Oral bioavailability in male Wistar-Han rat assessed as fraction of absorbed dose
Assay type: ADME, organism-based
Experimental setup: in vivo, read-out: Fabs
Where a SMILES comes first, the peptide text is derived from it. [ ]: non-standard residue; d: D form. NMeY = CN[C@@H](Cc1ccc(O)cc1)C(=O)O; dNMeL = CN[C@H](CC(C)C)C(=O)O; NMeS = CN[C@@H](CO)C(=O)O
Measured property: Fa (%)
Numbers only, in %.

Query string: State the recorded Fa for this entry: CC(C)C[C@@H]1NC(=O)[C@H](Cc2ccc(O)cc2)N(C)C(=O)[C@H]2CCCN2C(=O)[C@H](CC(C)C)NC(=O)[C@H](CO)N(C)C(=O)[C@@H](CC(C)C)N(C)C1=O (cyclo(L[dNMeL][NMeS]L[dP][NMeY]))
Result string: 14.5

====

Test summary: Terminal elimination half life in Wistar-Han rat at 10 mg/kg, po
Type: ADME, organism-based
Design: dose 10 mg/kg, route oral
Experimental setup: in vivo, read-out: beta t1/2 (converted)
Where a SMILES comes first, the peptide text is derived from it. [ ]: non-standard residue; d: D form. NMeY = CN[C@@H](Cc1ccc(O)cc1)C(=O)O; NMeD = CN[C@@H](CC(=O)O)C(=O)O; dNMeL = CN[C@H](CC(C)C)C(=O)O; NMeK = CN[C@@H](CCCCN)C(=O)O
Task for the reader: assign each of the following molecules its reported half-life.
# do not omit the unit; it follows the number

molecule="CC(C)C[C@@H]1NC(=O)[C@H](Cc2ccc(O)cc2)N(C)C(=O)[C@H]2CCCN2C(=O)[C@H](CC(C)C)NC(=O)[C@H](CC(=O)O)N(C)C(=O)[C@@H](CC(C)C)N(C)C1=O (cyclo(L[dNMeL][NMeD]L[dP][NMeY]))" value_observed="284 min"

Query string: State the recorded half-life for this entry: CC(C)C[C@@H]1NC(=O)[C@H](Cc2ccc(O)cc2)N(C)C(=O)[C@H]2CCCN2C(=O)[C@H](CC(C)C)NC(=O)[C@H](CCCCN)N(C)C(=O)[C@@H](CC(C)C)N(C)C1=O (cyclo(L[dNMeL][NMeK]L[dP][NMeY]))
Result string: 93.6 min

====

Test summary: AUC (0 to infinity) in male Wistar-Han rat at 1.48 mg/kg, iv
Type: ADME, organism-based
Set-up: time infinity, dose 1.48 mg/kg, route intravenous
Experimental setup: plasma
Where a SMILES comes first, the peptide text is derived from it. [ ]: non-standard residue; d: D form. NMeY = CN[C@@H](Cc1ccc(O)cc1)C(=O)O; NMeD = CN[C@@H](CC(=O)O)C(=O)O; dNMeL = CN[C@H](CC(C)C)C(=O)O
Measured property: AUC(0-inf) (ng·h/mL)
One number for each entry, in ng·h/mL.

Query string: State the recorded AUC(0-inf) for this entry: CC(C)C[C@@H]1NC(=O)[C@H](Cc2ccc(O)cc2)N(C)C(=O)[C@H]2CCCN2C(=O)[C@H](CC(C)C)NC(=O)[C@H](CC(=O)O)N(C)C(=O)[C@@H](CC(C)C)N(C)C1=O (cyclo(L[dNMeL][NMeD]L[dP][NMeY]))
Result string: 441

====

Test summary: Oral bioavailability in male Wistar-Han rat at 2.9 mg/kg
Type: ADME, organism-based
Experimental setup: in vivo
Where a SMILES comes first, the peptide text is derived from it. [ ]: non-standard residue; d: D form. NMeY = CN[C@@H](Cc1ccc(O)cc1)C(=O)O; NMeT = CN[C@H](C(=O)O)[C@@H](C)O; dNMeL = CN[C@H](CC(C)C)C(=O)O
Measured property: bioavailability (%)
Numbers only, in %.

Query string: State the recorded bioavailability for this entry: CC(C)C[C@@H]1NC(=O)[C@H](Cc2ccc(O)cc2)N(C)C(=O)[C@H]2CCCN2C(=O)[C@H](CC(C)C)NC(=O)[C@H]([C@@H](C)O)N(C)C(=O)[C@@H](CC(C)C)N(C)C1=O (cyclo(L[dNMeL][NMeT]L[dP][NMeY]))
Result string: 23.8
